Test system: Escherichia coli B-Ampi R
experimental protocol: MIC in gelose culture medium (relative to reference penicillin)
Format: cell-based
condition notes: E.COLI B AMPI-R; reference ampicillin = 1
Each entry below carries its recorded MIC relative to reference compound (=1).
Keep the answer to the number alone.

# count of solved cases: 3
INSERT INTO assay_data (compound, observable, quantitative_readout) VALUES
  ('NC(C(=O)NC1C(=O)N2C1SC1(CCSCC1)C2C(=O)O)c1ccccc1 (stereo not shown) [Compound F]', 'MIC relative to reference compound (=1)', 3),
  ('CC1(C)S[C@@H]2[C@H](NC(=O)[C@H](N)c3ccccc3)C(=O)N2[C@H]1C(=O)O [Ampicillin, ampicillin, reference compound]', 'MIC relative to reference compound (=1)', 1),
  ('N[C@@H](C(=O)NC1C(=O)N2C1SC1(CCOCC1)C2C(=O)O)c1ccccc1 (single isomer, unassigned) [Compound B]', 'MIC relative to reference compound (=1)', 1);

// below: MIC relative to reference compound (=1) requested for another compound
Ask | # return recorded MIC relative to reference compound (=1) for entry NC(C(=O)NC1C(=O)N2C1SC1(CC[S+]([O-])CC1)C2C(=O)O)c1ccccc1 (stereo not shown) [Compound J]
Reply | 2
